ASSAY SYSTEM: organic cation transporter 1 (OCT1) (Homo sapiens)
Construct: NM_003057 overexpressed in HEK293 cells
Sequence (O15245 whole entry): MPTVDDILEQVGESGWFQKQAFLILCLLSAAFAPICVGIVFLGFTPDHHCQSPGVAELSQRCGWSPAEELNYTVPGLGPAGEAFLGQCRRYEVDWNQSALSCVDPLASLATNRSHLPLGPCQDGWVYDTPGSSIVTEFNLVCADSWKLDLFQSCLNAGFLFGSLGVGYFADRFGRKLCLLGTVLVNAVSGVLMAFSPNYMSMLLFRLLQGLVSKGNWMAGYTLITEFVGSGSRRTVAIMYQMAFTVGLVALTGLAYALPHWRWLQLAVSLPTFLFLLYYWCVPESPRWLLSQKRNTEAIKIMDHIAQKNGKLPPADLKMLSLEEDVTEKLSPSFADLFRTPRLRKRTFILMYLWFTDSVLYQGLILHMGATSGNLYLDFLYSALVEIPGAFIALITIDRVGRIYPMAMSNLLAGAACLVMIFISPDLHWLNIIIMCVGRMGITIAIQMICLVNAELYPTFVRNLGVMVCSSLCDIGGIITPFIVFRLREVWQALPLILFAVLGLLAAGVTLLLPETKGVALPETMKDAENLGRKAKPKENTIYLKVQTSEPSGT
PROTOCOL DESCRIPTION: cis-inhibition of […]-TEA uptake in HEK-OCT1 cells
MEASURE: IC50 (nM)
# output: bare number, implied unit nM

GET /values?readout=IC50&item= Cn1cc(C2=C(c3cn(CCCSC(=N)N)c4ccccc34)C(=O)NC2=O)c2ccccc21
180
